system: DU-145 prostate; assay: NCI tumour cell line growth inhibition, 48 h
Property: GI50; scope: individual compounds

Example entries and their recorded answers appear below.
- COMPOUND: "Nc1nnnc2nc[nH]c12"
  TARGET_UNDER_TEST: "DU-145 prostate"
  GI50: "0.8 µM"
- COMPOUND: "Clc1ccc(Nc2nc(Nc3ccccc3)nc(Nc3ccc(-c4cc(-c5ccc(Cl)cc5)on4)cc3)n2)cc1"
  TARGET_UNDER_TEST: "DU-145 prostate"
  GI50: "20.4 µM"
- COMPOUND: "CCCCCCCCCC(CCCC(O)CC(=O)O)OC1OC(COC2OC(C)C(OC(C)=O)C(O)C2O)C(O)C(O)C1OC1OC(CO)C(O)C(O)C1OC1OC(C)C(OC(=O)CC(C)C)C(O)C1O (stereo not given)"
  TARGET_UNDER_TEST: "DU-145 prostate"
  GI50: "> 35 µM"
- COMPOUND: "CC(C)(C)NC(=O)[C@H]1CC[C@H]2[C@@H]3CC[C@H]4NC(=O)C=C[C@]4(C)[C@H]3CC[C@]12C"
  TARGET_UNDER_TEST: "DU-145 prostate"
  GI50: "> 100 µM"

[ask] Please state recorded GI50 (tested on DU-145 prostate) of c1ccc(-c2n(Cc3ccc4ccccc4c3)cc[n+]2Cc2ccc3ccccc3c2)cc1
[reply] 1.38 µM

###

system: MDA-MB-435; assay: NCI tumour cell line growth inhibition, 48 h
QUANTITY_NAME: TGI (µM)
Please state the figure in µM; there is no need to write the unit.

- MOLECULE: "CCCCCC[C@@H](C)Nc1nc2ccccc2c2occc12"
  TGI, µM: 40.2

Let's switch to this molecule now.
[ask] What value of TGI has been reported for the following molecule? O=C1/C(=C/c2[nH]ncc2-c2ccc(Cl)cc2)C(=O)N(c2ccccc2)C1c1ccccc1 (centres undefined)
[reply] 35.5

###

tested on: SN12C renal; assay: NCI tumour cell line growth inhibition, 48 h
QUANTITY_NAME: TGI

- COMPOUND: "Nc1nnc(CCC(=O)Nc2cc(Cl)ccc2Cl)n1N"
  QUANTITY_NAME: "TGI"
  OBSERVED: "> 100 µM"
- COMPOUND: "CCc1[nH]c(=O)c2oc3cc4ccccc4cc3c2c1C(=O)O"
  QUANTITY_NAME: "TGI"
  OBSERVED: "> 10 µM"
- COMPOUND: "COC(=O)C1=C(OC(=O)/C=C/c2ccc(Cl)cc2)C(C(=O)OC)[C@]2(O)[C@@H](C(=O)OC)[C@H]1C[C@@H](c1ccccc1)[C@@H]2C(=O)OC (stereo partly drawn)"
  QUANTITY_NAME: "TGI"
  OBSERVED: "> 29.5 µM"
- COMPOUND: "COc1cc2c(cc1O)CN1CCC23C=C[C@@H](O)CC13 (stereo partly drawn)"
  QUANTITY_NAME: "TGI"
  OBSERVED: "> 100 µM"
- COMPOUND: "COc1cc(C(C[N+](=O)[O-])SC(C)=O)ccc1OCc1ccccc1 (stereo not drawn)"
  QUANTITY_NAME: "TGI"
  OBSERVED: "15.7 µM"

[ask] What value of TGI has been reported for the following compound? Cc1nc(C)c(N2CCN(C(=O)O)CC2)c(=O)[nH]1
[reply] > 100 µM

[ask] O=[N+]([O-])c1ccc(C2=NOC(c3ccc(Cl)cc3)N2C23CC4CC(CC(C4)C2)C3)cc1 (stereo not drawn) , same question.
[reply] > 100 µM

[ask] COc1ccc(-n2c3c(c4cc(O)ccc42)Cc2ccccc2C3=O)cc1 , same question.
[reply] > 100 µM

###

tested on: T-47D breast; assay: NCI tumour cell line growth inhibition, 48 h
QUANTITY_NAME: TGI

- MOLECULE: "COc1cc(COC(=O)N2CC=CC2C(=O)O)c([N+](=O)[O-])cc1OC (stereo not given)"
  TGI: "> 100 µM"
- MOLECULE: "CN(C)Cc1ccc(C(C)(C)C)cc1-c1cc(C(C)(C)C)ccc1CN(C)C"
  TGI: "> 100 µM"
- MOLECULE: "COc1ccc2nc(-c3ccccc3)cc(Nc3cccc(C(C)=O)c3)c2c1"
  TGI: "> 100 µM"

[ask] What value of TGI has been reported for the following molecule? CC(c1ccccc1)[C@@H](C(=O)Nc1ccc(I)cc1F)N1C(=O)N[C@H](c2ccc(OC[C@H](O)CO)cc2)C1=O (stereo not given in full)
[reply] > 25 µM

[ask] N=c1ccc2nc(N)nn(O)c-2c1 , same question.
[reply] > 100 µM

[ask] NC(=O)c1nnsc1NN=O , same question.
[reply] > 100 µM

[ask] O=C1C2Cc3c(n(C(=O)c4ccccc4)c4ccccc34)CC2C(=O)N1c1ccc(Nc2ccc(N3C(=O)C4Cc5c(n(C(=O)c6ccccc6)c6ccccc56)CC4C3=O)cc2)cc1 (stereo not given) , same question.
[reply] > 100 µM

[ask] O=c1ccc(=O)n(-c2ccccc2)[nH]1 , same question.
[reply] > 100 µM

[ask] CN(C)/C=N\c1nncc2[nH]cnc12 , same question.
[reply] > 100 µM

[ask] COc1cccc(/C=C/c2ccnc3ccccc23)c1OC , same question.
[reply] > 10 µM

###

system: SK-MEL-5 melanoma; assay: NCI tumour cell line growth inhibition, 48 h
QUANTITY_NAME: TGI

Example entries and their recorded answers appear below.
- COMPOUND: "O=C(/C=C1\\N=C(c2ccccc2)N(c2nc3c(Cl)cc(Cl)cc3s2)C1=O)/C=C/c1ccccc1"
  QUANTITY_NAME: "TGI"
  OBSERVED: "> 100 µM"
- COMPOUND: "CCOC(=O)CCC(NC(=O)c1ccc(N=Cc2nc3ccccc3nc2-c2ccccc2)cc1)C(=O)OCC (stereo not given)"
  QUANTITY_NAME: "TGI"
  OBSERVED: "> 100 µM"
- COMPOUND: "Clc1ccc2ncc(-c3cccc(NC4CNC4)n3)n2c1"
  QUANTITY_NAME: "TGI"
  OBSERVED: "76.1 µM"
- COMPOUND: "CC(=O)[CH-]C(=O)c1ccccc1.CC(=O)[CH-]C(=O)c1ccccc1.CC(C)CCC[C@H](C)C1CCC2[C@@H]3CC=C4C[C@@H]([O-])CC[C@]4(C)C3CC[C@@]21C.CC(C)CCC[C@H](C)C1CCC2[C@@H]3CC=C4C[C@@H]([O-])CC[C@]4(C)C3CC[C@@]21C.Cl.[Ti+4] (stereo not given in full)"
  QUANTITY_NAME: "TGI"
  OBSERVED: "> 25 µM"
- COMPOUND: "CC(=O)C1(C)CC(C#N)(C#N)C(C#N)=C1N (stereo not given)"
  QUANTITY_NAME: "TGI"
  OBSERVED: "> 100 µM"

Let's switch to this compound now.
[ask] Please state recorded TGI (tested on SK-MEL-5 melanoma) of O=c1cc(NNc2ccccc2F)[nH]c(=O)[nH]1
[reply] 49.5 µM

###

tested on: MCF7 breast; test: NCI tumour cell line growth inhibition, 48 h
QUANTITY_NAME: TGI

Example entries and their recorded answers appear below.
- COMPOUND: "O=C(Nc1cccc(-n2cc(-c3ccncc3)c(-c3ccc(O)c(Cl)c3)n2)c1)c1cc(C(F)(F)F)cc(C(F)(F)F)c1"
  TGI: "> 50 µM"
- COMPOUND: "CC1=C[C@@H](C)C[C@]2(C)CC[C@H](O2)[C@]23CC[C@](CO)(C[C@H](O2)[C@@H]2O[C@@](C)(CC2=O)[C@@H](O)[C@H]2CC[C@@]4(CCC[C@@H](O4)[C@H](C)C(=O)O[C@H]4C[C@H]([C@]5(O)OCC[C@H](C)[C@@H]5O)O[C@H]4C=C1)O2)O3"
  TGI: "> 10 µM"
- COMPOUND: "COc1cc(C2c3cc4c(cc3[C@@H](Nc3ccc(Oc5ccccc5)cc3)C3COC(=O)[C@H]23)OCO4)cc(OC)c1O (some centres not stated)"
  TGI: "> 37.1 µM"
- COMPOUND: "COc1cc(C2c3[nH]c4ccccc4c3[C@@H](Nc3ccc(C#N)cc3)[C@H]3COC(=O)N23)cc(OC)c1O (some centres not stated)"
  TGI: "2.7 µM"
- COMPOUND: "CCCCCC[C@@H](C)Nc1nc2ccccc2c2occc12"
  TGI: "> 100 µM"

[ask] Please state recorded TGI (tested on MCF7 breast) of CCOc1ccc2c(c1)CN(Cc1ccc(Cl)cc1)CO2
[reply] 35.2 µM

[ask] Cc1c(-c2ccc(O)cc2)oc(=O)c2ccc(O)cc12 , same question.
[reply] > 100 µM

[ask] CCCCC(/C=C\COC1CCCCO1)=C/C(=O)OCC (configuration not stated) , same question.
[reply] > 100 µM

[ask] Cc1n[n+]([O-])c(C)cc1[N+](=O)[O-] , same question.
[reply] 45.6 µM

[ask] COC(=O)C1CC23C4=C(CCC41)CCC1CN4CC(C)C(CC(OC(C)=O)C12COC(C)=O)C43O (configuration not stated) , same question.
[reply] > 100 µM

[ask] OC(Cc1ccc2ccccc2n1)(C(F)(F)Cl)C(F)(F)Cl , same question.
[reply] > 10 µM

[ask] CC1(C(=O)O)C[C@](C)(C(=O)OCc2ccccc2)C[C@](C)(C(=O)OCc2ccccc2)C1 (some centres not stated) , same question.
[reply] > 100 µM
